- Tested on: K4 kissing-loop RNA reporter;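 note: bound reporter read as fluorescence of individual clusters on recovered sequencing chips by microscopy, with normalized cluster intensities fitted with a binding model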
- protocol-description: apparent KD of K4 kissing-loop reporter; higher = weaker reporter binding
- assay-setup: Eterna round: R107; input ligand: FMN 200 uM
observed-property: apparent KD of K4 kissing-loop reporter (nM)
Value expressed in nM; do not type the unit.

Example entries and their recorded answers appear below.
{"sequence-chain": "GUGCAGUGAUGUUGCACGAGGAAAGACGAUACCAGCCGUAAAUAAGGCCCUUGGCAGCGUAAGCUAGCAUAAAGUAUGCUAGUCC [Onarve]", "apparent KD of K4 kissing-loop reporter (nM)": 108}
{"sequence-chain": "AAUAAAAUCACGGCCGCCACUGAAUAAUUACAAAGUAGUGAUGUUACUUUACAUAUCUUAUUUAACAGGACCGGGUGAAUAUUUA [JR_ExcTryptoB_Sub007]", "apparent KD of K4 kissing-loop reporter (nM)": 78.6}
{"sequence-chain": "AUUUGUUUAUGUGAUACCAGACUUUGCAGUGAUGUUGCAUUUAUUUUAGAAGAAUAGUUUGUCCCUUGGCAGCACUAUGUAUUUA [JR_SSTheophyB_Sub006]", "apparent KD of K4 kissing-loop reporter (nM)": 44.9}

Q: Please give the measured apparent KD of K4 kissing-loop reporter for this sequence: GGGAGUAGUGCGGCCGCCACUGUGAAAGUAGAAGAAUAUAGUGAUGUUAUAUAGGAACAAAAGAAUAGGACCGGGCAUUAGAUUU [SSTRyptB.X]
Result: 311

Q: Give the measured apparent KD of K4 kissing-loop reporter of CAAACGUGCGGUAGGUUCAAGCGCUGGGAAGGAGCGCAGAUGACUGCAGGUAGGUCGCCCAGUGAUGUUGGGCUUUCCACCUACG [Dilausma] .
Result: 138

Q: Please report the recorded apparent KD of K4 kissing-loop reporter for UGAUACCAGACGGCCGCCACUCCCGCAGGUCAAAGACCUGCGAAGAAGGUUCUUCAGUGAUGUUGGAGGACCGGGUCUGGUAUCU [FiskerMod 22 - Jieux - Exclusion - Tryptophan B] .
Result: 217

Q: Reported apparent KD of K4 kissing-loop reporter, sequence GUAUGUGGAAACACGUACUUGUAUCCUAGGCAGGAUAUGCGGAAACGCAGAAGGGCCACCGGCGAGUUUAUCCAGUGAUGUUGGA [Ex FMN A 9] : ____
Result: 245
